Hello, the source for this data is patent US20240116985A1, in case you need it.

Measured Solubility of individual entries
assay: Solubility in PBS; assay type: physicochemical
Use µM as the unit, but write only the number.

molecule: CC(=O)N1CCC[C@]12CC=CCCCC1(CCCC=CCCCOC(=O)N3CC[C@@](C(=O)N[C@@H](Cc4ccsc4)C(=O)N[C@@H](Cc4csc5ccccc45)C(=O)N[C@H](CO)[C@@H](C)O)(C3)NC(=O)[C@H](Cc3ccccc3C(F)(F)F)NC(=O)[C@H](Cc3ccccc3)NC(=O)[C@H](C)NC(=O)[C@H](C)NC(=O)[C@H](CC(=O)O)NC(=O)[C@H](CC(=O)O)NC1=O)NC(=O)[C@H](CC(C)(C)C)NC(=O)[C@H](CC(=O)O)NC2=O (stereo partly shown)
measureUnit: µM
Solubility: 10
//
molecule: CC(=O)N1CCC[C@]12CC=CCCCC1(CCCC=CCCCCCC[C@@](C)(C(=O)N[C@@H](Cc3cn(C)cn3)C(=O)N[C@@H](Cc3csc4ccccc34)C(=O)N[C@@H](CCC(N)=O)C(N)=O)NC(=O)[C@H](CC(N)=O)NC(=O)[C@H](Cc3ccccc3)NC(=O)[C@H](C)NC(=O)[C@H](C)NC(=O)[C@H](CCC(=O)O)NC(=O)[C@H](CC(=O)O)NC1=O)NC(=O)[C@H](C)NC(=O)[C@H](CC(=O)O)NC2=O (stereo partly shown) [I-440]
measureUnit: µM
Solubility: 50
//
molecule: CC(=O)N1CCC[C@]12CC=CCCCC1(CCCC=CCCCOC(=O)N3CC[C@@](C(=O)N[C@@H](Cc4ccsc4)C(=O)N[C@@H](Cc4csc5ccccc45)C(=O)N[C@@H](C(N)=O)[C@H](C)O)(C3)NC(=O)[C@H](CC(N)=O)NC(=O)[C@H](Cc3ccccc3)NC(=O)[C@H](C)NC(=O)[C@H](C)NC(=O)[C@H](CN(CC(=O)O)CC(F)(F)F)NC(=O)[C@H](CC(=O)O)NC1=O)NC(=O)[C@H](CC(C)(C)C)NC(=O)[C@H](CC(=O)O)NC2=O (stereo partly shown) [I-949]
measureUnit: µM
Solubility: 49
//
molecule: CC(=O)N1CCC[C@]12CC=CCCCC1(CCCC=CCCCCCC[C@@](C)(C(=O)N[C@@H](Cc3cccc(F)c3)C(=O)N[C@@H](Cc3csc4ccccc34)C(=O)N[C@@H](CCC(N)=O)C(N)=O)NC(=O)[C@H](C(C)C)NC(=O)[C@H](Cc3ccccc3)NC(=O)[C@H](C)NC(=O)[C@H](C)NC(=O)[C@H](CC(N)=O)NC(=O)[C@H](CC(=O)O)NC1=O)NC(=O)[C@H](C)NC(=O)[C@H](CC(=O)O)NC2=O (stereo partly shown) [I-381]
measureUnit: µM
Solubility: 10
//
molecule: CC(=O)N1CCC[C@]12CC=CCCCC1(CCCC=CCCCCCC[C@@](C)(C(=O)N[C@@H](CCc3ccccc3)C(=O)N[C@@H](Cc3csc4ccccc34)C(=O)N[C@@H](CCC(N)=O)C(N)=O)NC(=O)[C@H](CC(N)=O)NC(=O)[C@H](Cc3ccccc3)NC(=O)[C@H](C)NC(=O)[C@H](C)NC(=O)[C@H](CCC(=O)O)NC(=O)[C@H](CC(=O)O)NC1=O)NC(=O)[C@H](C)NC(=O)[C@H](CC(=O)O)NC2=O (stereo partly shown) [I-443]
measureUnit: µM
Solubility: 50

I am curious: what Solubility value has been reported for CC(=O)N1CCC[C@]12CC=CCCCC1(CCCC=CCCCOC(=O)N3CC[C@@](C(=O)N[C@@H](Cc4ccsc4)C(=O)N[C@@H](Cc4csc5ccccc45)C(=O)N[C@@H](CO)C(N)=O)(C3)NC(=O)[C@H](CO)NC(=O)[C@H](Cc3ccccc3)NC(=O)[C@H](C)NC(=O)[C@H](C)NC(=O)[C@H](Cc3cccc(C(=O)O)c3)NC(=O)[C@H](CC(=O)O)NC1=O)NC(=O)[C@H](CC(C)(C)C)NC(=O)[C@H](CC(=O)O)NC2=O (stereo partly shown) [I-984] ?
45

I am curious: what Solubility value has been reported for CC[C@H](C)[C@@H]1NC(=O)[C@H](CC(=O)O)NC(=O)[C@]2(CC=CCCCC3(CCCC=CCCCCCC[C@@](C)(C(=O)N[C@@H](Cc4ccccc4OC)C(=O)N[C@@H](Cc4csc5ccccc45)C(=O)N[C@@H](CCC(N)=O)C(N)=O)NC(=O)[C@H](CC(N)=O)NC(=O)[C@H](Cc4ccccc4)NC(=O)[C@H](C)NC(=O)[C@H](C)NC(=O)[C@H](CC(=O)O)NC(=O)[C@H](CC(=O)O)NC3=O)NC1=O)CCCN2C(C)=O (stereo partly shown) ?
50

Reported Solubility for CC(=O)N1CCC[C@]12CC=CCCCC1(CCCC=CCCCOC(=O)N3CC[C@@](C(=O)N[C@@H](Cc4ccccc4Cl)C(=O)N[C@@H](Cc4csc5ccccc45)C(=O)N[C@H](CO)[C@@H](C)O)(C3)NC(=O)[C@H](CC(C)C)NC(=O)[C@H](Cc3ccccc3)NC(=O)[C@H](C)NC(=O)[C@H](C)NC(=O)[C@H](Cc3cccc(C(=O)O)c3)NC(=O)[C@H](CC(=O)O)NC1=O)NC(=O)[C@H](CC(C)(C)C)NC(=O)[C@H](CC(=O)O)NC2=O (stereo partly shown) : what is it?
10

Data request, read-out Solubility, for CC(=O)N1CCC[C@]12CC=CCCCC1(CCCC=CCCCOC(=O)N3CC[C@@](C(=O)N[C@@H](Cc4ccccc4Cl)C(=O)N[C@@H](Cc4csc5ccccc45)C(=O)N[C@H](C(N)=O)[C@@H](C)O)(C3)NC(=O)[C@H](CC(C)C)NC(=O)[C@H](Cc3ccccc3)NC(=O)[C@H](C)NC(=O)[C@H](C)NC(=O)[C@H](CC(=O)O)NC(=O)[C@H](CC(=O)O)NC1=O)NC(=O)[C@H](Cc1ccccc1)NC(=O)[C@H](CC(=O)O)NC2=O (stereo partly shown)
10

Name the recorded Solubility for CCC[C@@H]1NC(=O)[C@H](CC(=O)O)NC(=O)[C@]2(CC=CCCCC3(CCCC=CCCCCCC[C@@](C)(C(=O)N[C@@H](Cc4ccccc4)C(=O)N[C@@H](Cc4csc5ccccc45)C(=O)N[C@@H](CCC(N)=O)C(N)=O)NC(=O)[C@H](CCC(N)=O)NC(=O)[C@H](Cc4ccccc4)NC(=O)[C@H](C)NC(=O)[C@H](C)NC(=O)[C@H](CCC(=O)O)NC(=O)[C@H](CC(=O)O)NC3=O)NC1=O)CCCN2C(C)=O (stereo partly shown) [I-523] .
50
